Data origin, for the record: the NIST ThermoML archive (doi:10.1016/j.fluid.2018.04.024)

details: 293.15 K; 3000 kPa; Liquid; Vibrating tube method
Numbers after ± are expanded uncertainties.
ENDPOINT_NAME: mass density
Remember to quote the unit after the number.

{"COMPOUND": "CCCCC(=O)OC [methyl pentanoate]", "ENDPOINT_NAME": "mass density", "RESULT": "892.23 ± 0.92 kg/m3"}

// for each compound below, give its mass density
1. CCCCCCC(=O)OC [methyl heptanoate]
2. CCCCCCCC(=O)OC [methyl octanoate]
3. CCCCCC(=O)OC [methyl hexanoate]
4. CCCC(=O)OC [methyl butanoate]
5. CCCCCCCCC(=O)OC [methyl nonanoate]

881.98 ± 0.91 kg/m3
878.65 ± 0.91 kg/m3
886.42 ± 0.91 kg/m3
900.65 ± 0.93 kg/m3
876.13 ± 0.9 kg/m3

----------
conditions: 343.15 K; 5000 kPa; Liquid; Vibrating tube method
Assignment: determine reported mass density for the given molecules.
Numbers only, in kg/m3.

Use the examples below as a reference point.
{"MOLECULE": "CCCCCCC(=O)OC [methyl heptanoate]", "ENDPOINT_NAME": "mass density", "MEASURED_NUMBER": 838.79}
{"MOLECULE": "CCCCCCCCC(=O)OC [methyl nonanoate]", "ENDPOINT_NAME": "mass density", "MEASURED_NUMBER": 835.98}
{"MOLECULE": "CCCCCC(=O)OC [methyl hexanoate]", "ENDPOINT_NAME": "mass density", "MEASURED_NUMBER": 840.78}
{"MOLECULE": "CCCCCCCC(=O)OC [methyl octanoate]", "ENDPOINT_NAME": "mass density", "MEASURED_NUMBER": 837.24}
{"MOLECULE": "CCCC(=O)OC [methyl butanoate]", "ENDPOINT_NAME": "mass density", "MEASURED_NUMBER": 847.57}

# ---- query molecule ----
Need mass density, item CCCCC(=O)OC [methyl pentanoate]
843.76

----------
settings: 333.15 K; 15000 kPa; Liquid; Vibrating tube method
ENDPOINT_NAME: mass density (kg/m3)
Answers are plain numbers, in kg/m3.

Dear colleague, could you send me mass density for each of the items below? Thanks.
1. CCCCCCCCC(=O)OC [methyl nonanoate]
2. CCCC(=O)OC [methyl butanoate]
3. CCCCC(=O)OC [methyl pentanoate]
4. CCCCCCCC(=O)OC [methyl octanoate]
5. CCCCCC(=O)OC [methyl hexanoate]
6. CCCCCCC(=O)OC [methyl heptanoate]

1: 852.27; 2: 869.44; 3: 863.66; 4: 854.18; 5: 859.63; 6: 856.43

----------
Please go through the items and note down their mass density.
conditions: 303.15 K; 3000 kPa; Liquid; Vibrating tube method
Answers are plain numbers, in kg/m3.

{"COMPOUND": "CCCC(=O)OC [methyl butanoate]", "MEASURED_NUMBER": 889.67}
{"COMPOUND": "CCCCCC(=O)OC [methyl hexanoate]", "MEASURED_NUMBER": 877.13}
{"COMPOUND": "CCCCCCCCC(=O)OC [methyl nonanoate]", "MEASURED_NUMBER": 867.88}
{"COMPOUND": "CCCCCCCC(=O)OC [methyl octanoate]", "MEASURED_NUMBER": 869.93}

Each compound below has a reported value. Please supply its mass density.
1. CCCCC(=O)OC [methyl pentanoate]
2. CCCCCCC(=O)OC [methyl heptanoate]

1: 882.29; 2: 873.07
